# PROTOCOL TEXT: NCI Yeast Anticancer Drug Screen. Data for the rad52 strain (AID 147);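 also: 0% = growth of vehicle-treated control cultures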
# CONDITION NOTES: S. cerevisiae rad52 mutant growth inhibition; at 33.0 µM
This is part of a sample that, as a whole, favours compounds with a hit. Of some 79,000 tested, about 15% had one in any assay. Activity calls are given as the source filed them. Rule as the data show it: active = growth inhibition above about 70%; inactive = the rest.
Result category, one only: y (active), n (inactive)

Record excerpt, results attached:
Query: recorded result category for "Cc1nc2ccccc2cc1C[N+]12CN3CN(CN(C3)C1)C2" in this test
n

Query: recorded result category for "CC1=C(N2CC2)C(=O)c2ccccc2C1=O" in this test
n

Query: recorded result category for "CS(=O)(=O)OCCN(CCOS(C)(=O)=O)c1ccc(C=O)cc1" in this test
y

Query: recorded result category for CCOC(=O)C1=C(C(=O)OCC)C2(c3ccccc3)N(O1)c1ccccc1C2(C)C (configuration not stated) in this test
n

Query: recorded result category for "CC1=C2C(=C[C@@](C)(CO)[C@@H]2O)C(=O)[C@](C)(O)C12CC2" in this test
n

Query: recorded result category for O=C(O)C1C2c3ccccc3C(c3ccccc32)C1C(=O)O (configuration not stated) in this test
n

Query: recorded result category for "C[N+](CCCl)(CCCl)Cc1cccc2cccc([N+](=O)[O-])c12" in this test
y

Query: recorded result category for "CCNCC(=O)O[C@]1(CC)C(=O)OCc2c1cc1n(c2=O)Cc2cc3ccccc3nc2-1" in this test
n

Query: recorded result category for "CC[PH+](CC)CC.CC[PH+](CC)CC.[Au]" in this test
y

Query: recorded result category for C[N+](C)(C)CC1CCCC(C[N+](C)(C)C)C1=O (configuration not stated) in this test
n

New cases:
Query: recorded result category for "N#CC(C#N)=Cc1ccc(C#N)cc1" in this test
n

Query: recorded result category for "C/C(=N\O)c1ccc2ccc3ccccc3c2c1" in this test
y

* * *

# PROTOCOL TEXT: NCI Yeast Anticancer Drug Screen. Data for the bub3 strain (AID 167)
# CONDITION NOTES: S. cerevisiae bub3 mutant strain, at 50.0 µM
The panel holds about 79,000 compounds, 15% with a hit somewhere; the sample as a whole holds those more often. Activity calls are given as the source filed them. Rule as the data show it: active = growth inhibition above about 70%; inactive = the rest.
Result category, one only: T for active, F for inactive

Query: recorded result category for "CC1=C(CO)C2=C(C)C3(CC3)[C@@](C)(O)C(=O)C2=C1" in this test
F

Query: recorded result category for "O=c1oc2ccccc2c(O)c1C1c2c(c3ccccc3oc2=O)Oc2c1c(=O)oc1ccccc21" in this test
T

Query: recorded result category for "O=C1C(=O)c2ccccc2-c2ccccc21.O=C1C(=O)c2ccccc2-c2ccccc21.[Hg]" in this test
F

Attention now shifts to the item below.
Query: recorded result category for "C[C@@H]1CC[C@@]2(NC1)O[C@H]1C[C@H]3[C@@H]4CC[C@H]5C[C@@H](O)CC[C@]5(C)[C@H]4CC[C@]3(C)[C@H]1[C@@H]2C" in this test
T

* * *

Reported growth inhibition values for the following compounds.
# PROTOCOL TEXT: NCI Yeast Anticancer Drug Screen. Data for the bub3 strain (AID 167)
# CONDITION NOTES: S. cerevisiae bub3 mutant strain, at 50.0 µM (retest, dose inferred, filed as 5.0), hits give high values
The panel holds about 79,000 compounds, 15% with a hit somewhere; the sample as a whole holds those more often. Activity calls are given as the source filed them. Cut-off read from the data, not from the text of the source: active = growth inhibition above about 70%; inactive = the rest.

For orientation, consider the following solved cases.
What value of growth inhibition has been recorded for this entry: COc1cc(C2c3cc4c(cc3[C@@H](Nc3ccc(N)cc3)C3COC(=O)[C@H]23)OCO4)cc(OC)c1O (stereo not given in full)
93% (active)

What value of growth inhibition has been recorded for this entry: "O=C1[O][Hg][c]2cccc3cccc1c23"
58% (inactive)

What value of growth inhibition has been recorded for this entry: "CCOP(=O)(OCC)/C(C#N)=C/c1cccc(Cl)c1"
96% (active)

New cases:
What value of growth inhibition has been recorded for this entry: COc1cc2c3c(c1)-c1c(ccc(OC)c1OC)CC3N(CCCl)CC2 (stereo not given)
75% (active)

What value of growth inhibition has been recorded for this entry: "c1cc[c]([Sn]([c]2ccccc2)([c]2ccccc2)[CH]2CCCCC2)cc1"
93% (active)

What value of growth inhibition has been recorded for this entry: "C[CH2][Sn][CH2]C.c1cc[c]([Ge]([c]2ccccc2)[c]2ccccc2)cc1.c1cc[c]([Sn]([c]2ccccc2)[c]2ccccc2)cc1"
95% (active)

Entry source: PubChem BioAssay (NCI)
